The measurements presented in this section are drawn from patent US20250213558A1.

target: Human Cav3.1 calcium channel (Homo sapiens); construct: expressed in transfected cells; host or cells: HEK-293 natClytin/TASK1+Cav3.1 cell line; assay: Human Cav3.1 calcium channel patch clamp assay (SyncroPatch 384PE; single point and IC50, voltage dependent block); assay type: cell-based; details: Testing Conc 1.25; HEK-293 natClytin/TASK1+Cav3.1 cell line, patch clamp
List of % Inhibition (Single Point Data) values.
// return numeric value only (unit: %, not printed)

Look up % Inhibition (Single Point Data): Cc1ccc(C#N)c2nc(CN3CC4CC(C3)N4CC(=O)NC(C)(C)C)[nH]c12
87.595

Look up % Inhibition (Single Point Data): CC(C)(C)NC(=O)CN1C2CCC1CN(Cc1c[nH]c(-c3ccccc3)n1)C2
45.013

Look up % Inhibition (Single Point Data): COc1cc(NC(=O)CN2CC3CC(C2)N3CC(=O)NC2(C(F)(F)F)CC2)ccc1Cl
101.57

Now let's try a different one.
Look up % Inhibition (Single Point Data): CC(C)(C)NC(=O)CN1C[C@H]2C[C@@H]1CN2CC(=O)Nc1cc(F)cc(OC(F)F)c1
73.828

* * *

List of log10 of IC50 values.
biological target: Human Cav3.1 calcium channel (Homo sapiens, UniProt O43497); construct: expressed in transfected cells; host or cells: HEK-293 natClytin/TASK1+Cav3.1 cell line; experiment: Human Cav3.1 calcium channel patch clamp assay (SyncroPatch 384PE; single point and IC50, voltage dependent block); type: cell-based; conditions: voltage dependent block (VDB); HEK-293 natClytin/TASK1+Cav3.1 cell line; read-out: Cav3.1 IC50
Sequence (O43497 whole entry): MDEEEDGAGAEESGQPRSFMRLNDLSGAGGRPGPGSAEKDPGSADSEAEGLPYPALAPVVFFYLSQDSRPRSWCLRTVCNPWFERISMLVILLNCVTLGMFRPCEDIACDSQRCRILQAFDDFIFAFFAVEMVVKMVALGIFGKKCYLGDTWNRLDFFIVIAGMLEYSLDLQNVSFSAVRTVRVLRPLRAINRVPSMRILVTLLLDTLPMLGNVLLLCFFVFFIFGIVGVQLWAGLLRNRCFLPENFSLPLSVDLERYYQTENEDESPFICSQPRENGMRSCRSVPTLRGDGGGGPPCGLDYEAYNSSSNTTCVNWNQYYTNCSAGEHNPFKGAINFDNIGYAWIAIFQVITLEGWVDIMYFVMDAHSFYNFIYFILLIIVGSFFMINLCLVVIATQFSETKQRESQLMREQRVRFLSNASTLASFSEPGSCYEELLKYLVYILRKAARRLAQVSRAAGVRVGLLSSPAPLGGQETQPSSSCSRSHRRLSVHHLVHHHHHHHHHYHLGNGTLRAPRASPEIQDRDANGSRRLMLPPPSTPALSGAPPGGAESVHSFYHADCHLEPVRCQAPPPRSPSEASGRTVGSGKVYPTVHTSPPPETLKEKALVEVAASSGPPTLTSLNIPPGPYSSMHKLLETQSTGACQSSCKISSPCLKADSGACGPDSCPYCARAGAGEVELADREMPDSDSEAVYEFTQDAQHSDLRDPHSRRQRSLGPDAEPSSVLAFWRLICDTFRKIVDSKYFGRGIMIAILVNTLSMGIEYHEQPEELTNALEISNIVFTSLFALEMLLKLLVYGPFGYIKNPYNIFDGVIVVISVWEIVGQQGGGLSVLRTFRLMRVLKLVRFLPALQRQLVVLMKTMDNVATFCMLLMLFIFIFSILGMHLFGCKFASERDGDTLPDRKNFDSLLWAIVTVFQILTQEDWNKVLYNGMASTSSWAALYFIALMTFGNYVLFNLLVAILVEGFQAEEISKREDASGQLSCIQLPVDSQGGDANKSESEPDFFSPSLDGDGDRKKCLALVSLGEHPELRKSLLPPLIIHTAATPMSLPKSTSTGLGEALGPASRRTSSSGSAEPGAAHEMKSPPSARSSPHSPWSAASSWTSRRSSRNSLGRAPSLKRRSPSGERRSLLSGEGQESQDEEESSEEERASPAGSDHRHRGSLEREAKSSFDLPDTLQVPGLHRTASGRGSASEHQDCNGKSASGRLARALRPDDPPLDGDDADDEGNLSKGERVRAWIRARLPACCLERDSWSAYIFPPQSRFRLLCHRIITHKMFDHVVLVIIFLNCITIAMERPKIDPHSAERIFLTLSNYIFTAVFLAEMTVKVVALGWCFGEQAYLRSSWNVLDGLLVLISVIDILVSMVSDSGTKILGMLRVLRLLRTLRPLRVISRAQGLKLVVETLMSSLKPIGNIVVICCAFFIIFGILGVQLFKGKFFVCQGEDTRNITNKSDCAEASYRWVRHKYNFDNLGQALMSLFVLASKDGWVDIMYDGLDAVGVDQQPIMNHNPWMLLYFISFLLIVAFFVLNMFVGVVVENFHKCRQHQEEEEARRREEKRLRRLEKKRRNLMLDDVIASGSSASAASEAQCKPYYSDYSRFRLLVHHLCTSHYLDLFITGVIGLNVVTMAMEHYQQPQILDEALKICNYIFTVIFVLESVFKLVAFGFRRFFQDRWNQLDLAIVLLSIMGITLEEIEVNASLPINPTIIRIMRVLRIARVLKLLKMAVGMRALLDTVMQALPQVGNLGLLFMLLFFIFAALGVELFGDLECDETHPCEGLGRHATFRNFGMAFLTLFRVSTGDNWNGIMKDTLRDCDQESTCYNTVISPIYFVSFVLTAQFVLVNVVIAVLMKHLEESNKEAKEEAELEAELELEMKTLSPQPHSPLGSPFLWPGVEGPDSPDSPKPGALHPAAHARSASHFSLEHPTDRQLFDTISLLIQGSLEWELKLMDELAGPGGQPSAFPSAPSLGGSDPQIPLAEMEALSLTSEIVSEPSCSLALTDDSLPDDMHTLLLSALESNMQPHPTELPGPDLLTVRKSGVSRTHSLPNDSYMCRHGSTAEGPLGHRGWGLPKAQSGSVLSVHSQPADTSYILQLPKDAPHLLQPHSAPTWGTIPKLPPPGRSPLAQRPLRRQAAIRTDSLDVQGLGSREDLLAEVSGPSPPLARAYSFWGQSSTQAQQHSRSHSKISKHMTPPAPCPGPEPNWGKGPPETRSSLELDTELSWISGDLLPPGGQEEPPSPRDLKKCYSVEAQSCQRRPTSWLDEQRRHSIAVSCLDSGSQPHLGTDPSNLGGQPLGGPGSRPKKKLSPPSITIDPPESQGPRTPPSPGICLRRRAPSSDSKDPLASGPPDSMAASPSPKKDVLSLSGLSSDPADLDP
Please interpret these as log10 of IC50 where IC50 is in nM.

Known log10 of IC50 results, listed for orientation:
Look up log10 of IC50: CC(C)Cc1cc(CNC(=O)CN2C[C@@H]3C[C@H]2CN3CC(=O)NC(C)(C)C)nn1-c1ccccc1 [Compound 302]
3.52

Look up log10 of IC50: O=C(CN1CC2CC1CN2CCNC(=O)C1(C(F)(F)F)CC1)Nc1cc(F)cc(Cl)c1 (centres unmarked) [Compound 227]
2.20

Look up log10 of IC50: Cc1ccc(F)c2[nH]c(CN3CC4CC(C3)N4CC(=O)NC(C)(C)C)nc12 [Compound 207]
2.08

Look up log10 of IC50: O=S(=O)(CCN1C2CC1CN(Cc1nc3c(Cl)ccc(F)c3[nH]1)C2)c1ccccc1 [Compound 168]
2.85

Look up log10 of IC50: CC(C)(C)NC(=O)CN1C2CC1CN(CC(=O)NC1CCCC(OC(F)F)C1)C2 (centres unmarked) [Compound 321]
2.91

Further cases:
Look up log10 of IC50: COc1cccc(NC(=O)CN2CC3CC(C2)N3CC(=O)NC(C)(C)C)c1 [Compound 208]
3.00

Look up log10 of IC50: CC(C)(C)NC(=O)CN1C[C@@H]2C[C@H]1CN2CC(=O)NC1CCCC(OC(F)F)C1 (some centres unmarked) [Compound 343]
3.29

Look up log10 of IC50: O=C(CN1CC2CC1CN2CC(=O)NC1(C(F)(F)F)CC1)Nc1cc(F)cc(OC(F)F)c1 (centres unmarked) [Compound 56]
2.47

Look up log10 of IC50: CC1(C)CCN(C(=O)CN2C3CCC2CN(Cc2nc4c(Cl)cc(F)cc4[nH]2)C3)C1 [Compound 93]
2.45

Look up log10 of IC50: CC(C)(C)NC(=O)CN1C[C@H]2CC[C@@H]1CN2CC(=O)Nc1ccc(F)c(OC(F)F)c1 [Compound 266]
2.90
